EXPERIMENTAL SYSTEM: SHP2-C SH2
METHOD: SH2 binding enrichment of the phosphorylated peptide, bacterial display (enrichment ratio); higher = better substrate or ligand; peptides without Tyr show the background
ASSAY ENDPOINT: SH2 binding enrichment

{"ENTRY SEQUENCE": "ALSDGYWVVSN [TPP1_Y459]", "SH2 binding enrichment": 0.879}
{"ENTRY SEQUENCE": "RLGNQHVNVMN [SLC3A1_Y461_Y461H]", "SH2 binding enrichment": 0.762}
{"ENTRY SEQUENCE": "ECKLLYSQKEG [PTPN11_Y263_R265Q]", "SH2 binding enrichment": 0.667}
{"ENTRY SEQUENCE": "RPSRQYATRDV [SCAMP3_Y35_L38R]", "SH2 binding enrichment": 0.801}
{"ENTRY SEQUENCE": "YKTPIYPYLLP [PLD2_Y578_T577I]", "SH2 binding enrichment": 1.04}
{"ENTRY SEQUENCE": "RLGDLYEEEMR [VIM_Y150]", "SH2 binding enrichment": 0.567}
{"ENTRY SEQUENCE": "VTQEQYELFCE [CBL_Y368_YF]", "SH2 binding enrichment": 0.747}

----------
EXPERIMENTAL SYSTEM: SHP2-C SH2;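 also: peptide library displayed on the E. coli surface as eCPX fusions, selected cells deep-sequenced, score is each peptide's frequency after selection divided by its frequency in the input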
METHOD: SH2 binding enrichment of the phosphorylated peptide, bacterial display (enrichment ratio); higher = better substrate or ligand; peptides without Tyr show the background
ASSAY ENDPOINT: SH2 binding enrichment

{"ENTRY SEQUENCE": "NFFEFYVDDPP [GCHFR_Y48_YF]", "SH2 binding enrichment": 0.594}
{"ENTRY SEQUENCE": "NFHRGYHLQVL [CD200R1L_Y138]", "SH2 binding enrichment": 0.827}
{"ENTRY SEQUENCE": "DMLYQYLKQIE [RPAP3_Y569]", "SH2 binding enrichment": 0.635}

I = TCFDKYTGSTY [FN1_Y101_N104S]
II = QDEHGYIFRCF [HSPB1_Y133_S135F]
Dear colleague, could you let me know whether I or II has the lower recorded SH2 binding enrichment? Thanks. // respond with label for picked entry
II

I = DGQSVYKLTDF [TBK1_Y153]
II = TRDVNYGWTIR [MT-CYB_Y75_I78T]
Dear colleague, could you let me know whether I or II has the lower recorded SH2 binding enrichment? Thanks. // respond with label for picked entry
I

----------
EXPERIMENTAL SYSTEM: Hck (UniProt P08631)
Sequence (P08631 whole entry, looked up): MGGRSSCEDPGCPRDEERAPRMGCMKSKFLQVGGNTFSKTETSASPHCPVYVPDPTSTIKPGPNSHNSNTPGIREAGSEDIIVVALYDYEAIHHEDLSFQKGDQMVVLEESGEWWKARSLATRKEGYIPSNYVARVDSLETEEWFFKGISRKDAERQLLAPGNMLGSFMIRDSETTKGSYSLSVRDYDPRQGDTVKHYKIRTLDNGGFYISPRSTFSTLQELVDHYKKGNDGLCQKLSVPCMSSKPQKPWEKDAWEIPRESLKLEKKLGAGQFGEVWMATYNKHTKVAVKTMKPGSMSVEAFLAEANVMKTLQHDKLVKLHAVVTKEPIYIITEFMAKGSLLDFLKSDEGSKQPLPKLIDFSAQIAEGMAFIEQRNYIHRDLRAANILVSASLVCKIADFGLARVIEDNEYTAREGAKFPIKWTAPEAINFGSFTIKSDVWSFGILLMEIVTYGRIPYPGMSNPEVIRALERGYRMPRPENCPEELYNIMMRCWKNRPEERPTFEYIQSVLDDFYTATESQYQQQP
METHOD: phosphorylation enrichment, bacterial display (enrichment ratio); higher = better substrate or ligand; peptides without Tyr show the background
ASSAY ENDPOINT: phosphorylation enrichment
Give your answer as a number; write no unit.

Look over these answered cases.
{"ENTRY SEQUENCE": "VFAADYFKLLG [ROR2_Y645_YF]", "phosphorylation enrichment": 0.439}
{"ENTRY SEQUENCE": "EKKDIYKAGEQ [CFH_Y1008_V1007I]", "phosphorylation enrichment": 0.373}
{"ENTRY SEQUENCE": "FVPAAYVKKLD [SPTAN1_Y1020]", "phosphorylation enrichment": 0.445}

Reported phosphorylation enrichment of GMEIVYVYVKK [DNAI2_Y5] : 0.899

Reported phosphorylation enrichment of LFLALYTGLVR [PIGB_Y402_H407R] : 1.59

----------
# phosphorylation enrichment per record follows
System: c-Src
METHOD: phosphorylation enrichment, bacterial display (enrichment ratio); higher = better substrate or ligand; peptides without Tyr show the background
Give your answer as a number; write no unit.

Look over these answered cases.
{"ENTRY SEQUENCE": "RIGRKYKKVRF [F8_Y442]", "READING": 0.385}
{"ENTRY SEQUENCE": "DLHGIYQKLVI", "READING": 5.84}
{"ENTRY SEQUENCE": "IYRASYYRRGD [LTK_Y676]", "READING": 0.666}

Reported phosphorylation enrichment of NQKGKYFNVER [ANAPC4_Y469_R465Q] : 0.386

----------
EXPERIMENTAL SYSTEM: EPHB2 (UniProt P29323)
Sequence (P29323 whole entry, looked up): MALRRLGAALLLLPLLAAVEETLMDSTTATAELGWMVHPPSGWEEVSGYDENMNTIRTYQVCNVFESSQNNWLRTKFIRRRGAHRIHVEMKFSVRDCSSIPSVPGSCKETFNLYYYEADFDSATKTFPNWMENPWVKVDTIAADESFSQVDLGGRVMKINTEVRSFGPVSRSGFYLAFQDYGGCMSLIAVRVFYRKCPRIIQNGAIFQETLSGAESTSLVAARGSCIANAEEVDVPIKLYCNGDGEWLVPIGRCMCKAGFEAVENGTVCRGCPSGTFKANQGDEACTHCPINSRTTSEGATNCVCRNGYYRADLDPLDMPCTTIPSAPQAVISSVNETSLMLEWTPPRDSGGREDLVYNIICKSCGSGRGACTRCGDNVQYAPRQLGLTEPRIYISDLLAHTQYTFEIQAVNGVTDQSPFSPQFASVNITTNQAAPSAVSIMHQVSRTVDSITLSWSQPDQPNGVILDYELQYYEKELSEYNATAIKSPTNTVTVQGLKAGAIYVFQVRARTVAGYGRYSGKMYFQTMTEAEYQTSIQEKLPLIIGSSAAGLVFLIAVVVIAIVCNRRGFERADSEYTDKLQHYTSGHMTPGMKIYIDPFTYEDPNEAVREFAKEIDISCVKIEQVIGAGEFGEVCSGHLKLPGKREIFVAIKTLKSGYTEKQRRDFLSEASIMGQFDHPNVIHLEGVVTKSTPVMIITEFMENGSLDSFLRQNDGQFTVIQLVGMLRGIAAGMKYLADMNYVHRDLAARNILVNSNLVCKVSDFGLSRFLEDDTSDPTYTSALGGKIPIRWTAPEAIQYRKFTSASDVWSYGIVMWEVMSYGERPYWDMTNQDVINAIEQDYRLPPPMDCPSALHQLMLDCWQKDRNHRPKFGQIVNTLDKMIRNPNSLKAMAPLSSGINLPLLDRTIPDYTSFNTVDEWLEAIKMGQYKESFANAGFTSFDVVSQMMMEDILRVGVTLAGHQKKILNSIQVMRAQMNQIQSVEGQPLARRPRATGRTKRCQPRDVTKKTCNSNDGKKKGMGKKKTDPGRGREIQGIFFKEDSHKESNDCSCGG
METHOD: phosphorylation enrichment, bacterial display (enrichment ratio); higher = better substrate or ligand; peptides without Tyr show the background
ASSAY ENDPOINT: phosphorylation enrichment
Give your answer as a number; write no unit.

Look over these answered cases.
{"ENTRY SEQUENCE": "PEFVVYKPQME [CCRL2_Y170]", "READING": 0.843}
{"ENTRY SEQUENCE": "VGNPAYRSFSN [IL4R_Y497_A492V]", "READING": 0.417}
{"ENTRY SEQUENCE": "EQQNMYRLKVL [ABCC6_Y372]", "READING": 0.5}
{"ENTRY SEQUENCE": "SREALYNETDP [CACNA1A_Y794_M797T]", "READING": 0.642}

Reported phosphorylation enrichment of NACGLYHTMNG [GATA5_Y216_K218T] : 0.849

----------
Test system: c-Src
METHOD: phosphorylation enrichment, bacterial display (enrichment ratio); higher = better substrate or ligand; peptides without Tyr show the background
# phosphorylation enrichment per record follows
Give your answer as a number; write no unit.

Look over these answered cases.
{"ENTRY SEQUENCE": "RHCSGYVLIAM [EFR3A_Y73_R70C]", "phosphorylation enrichment": 0.517}
{"ENTRY SEQUENCE": "SSYPDYLAAVD [GLB1_Y154_D151Y]", "phosphorylation enrichment": 0.451}
{"ENTRY SEQUENCE": "GPGGDYAAMGA [ERBB3_Y1276]", "phosphorylation enrichment": 0.494}
{"ENTRY SEQUENCE": "TCFDKYTGSTY [FN1_Y101_N104S]", "phosphorylation enrichment": 0.5}
{"ENTRY SEQUENCE": "SGLDSYVRSLP [TRAPPC1_Y133_R129G]", "phosphorylation enrichment": 0.359}
{"ENTRY SEQUENCE": "RPQDGFRIVQH [PTPRT_Y1329_Y1329F]", "phosphorylation enrichment": 0.483}
{"ENTRY SEQUENCE": "PGGKIYISPLK [RB1_Y805_N803K]", "phosphorylation enrichment": 0.422}
{"ENTRY SEQUENCE": "TSSAIYMNLAS [GATAD2B_Y317]", "phosphorylation enrichment": 6.07}
{"ENTRY SEQUENCE": "GGSTFYIDTNA [ACTL6A_Y69_P66S_YF]", "phosphorylation enrichment": 0.39}
{"ENTRY SEQUENCE": "ARMTNCGLPRF [TSPAN12_Y138_Y138C_YF]", "phosphorylation enrichment": 0.323}

Reported phosphorylation enrichment of FRDMDYRSFPR [RBM10_Y41_YF] : 0.4

Reported phosphorylation enrichment of AMGAVYQAAAL [HYOU1_Y421] : 2.81

Reported phosphorylation enrichment of VSNFNYFFHRE [KCNA1_Y413_YF] : 0.445

Reported phosphorylation enrichment of ENFDDYMKEVG [FABP4_Y20] : 0.539

Reported phosphorylation enrichment of SLLTDYSPQLQ [OTC_Y345] : 0.372

Reported phosphorylation enrichment of EESSHYSTEKE [ADAR_Y587] : 0.427

Reported phosphorylation enrichment of KVGNEYITKGQ [MYH7_Y410_V411I] : 0.403

Reported phosphorylation enrichment of SGIYQYSIAKF [FOXL2_Y83_I84S] : 4.12

Reported phosphorylation enrichment of MSRDVYSIDYY [NTRK2_Y702_T704I] : 6.79

Reported phosphorylation enrichment of VIGRMYDFHVL [RPF2_Y109_YF] : 0.598

Reported phosphorylation enrichment of VIERSYTSADG [DHCR7_Y382_C380R] : 0.419

Reported phosphorylation enrichment of KAPVDYIRKLQ [MITF_Y360_S357P] : 0.406

Reported phosphorylation enrichment of EFNLMYDGTKE [IRF6_Y97] : 0.597

Reported phosphorylation enrichment of GIVEDYRPPVF [ACVRL1_Y421_F425V_YF] : 0.414

Reported phosphorylation enrichment of KLFFHYNPKLC [INSR_Y457] : 0.428

----------
# phosphorylation enrichment per record follows
EXPERIMENTAL SYSTEM: FGFR3 (UniProt P22607)
Sequence (P22607 whole entry, looked up): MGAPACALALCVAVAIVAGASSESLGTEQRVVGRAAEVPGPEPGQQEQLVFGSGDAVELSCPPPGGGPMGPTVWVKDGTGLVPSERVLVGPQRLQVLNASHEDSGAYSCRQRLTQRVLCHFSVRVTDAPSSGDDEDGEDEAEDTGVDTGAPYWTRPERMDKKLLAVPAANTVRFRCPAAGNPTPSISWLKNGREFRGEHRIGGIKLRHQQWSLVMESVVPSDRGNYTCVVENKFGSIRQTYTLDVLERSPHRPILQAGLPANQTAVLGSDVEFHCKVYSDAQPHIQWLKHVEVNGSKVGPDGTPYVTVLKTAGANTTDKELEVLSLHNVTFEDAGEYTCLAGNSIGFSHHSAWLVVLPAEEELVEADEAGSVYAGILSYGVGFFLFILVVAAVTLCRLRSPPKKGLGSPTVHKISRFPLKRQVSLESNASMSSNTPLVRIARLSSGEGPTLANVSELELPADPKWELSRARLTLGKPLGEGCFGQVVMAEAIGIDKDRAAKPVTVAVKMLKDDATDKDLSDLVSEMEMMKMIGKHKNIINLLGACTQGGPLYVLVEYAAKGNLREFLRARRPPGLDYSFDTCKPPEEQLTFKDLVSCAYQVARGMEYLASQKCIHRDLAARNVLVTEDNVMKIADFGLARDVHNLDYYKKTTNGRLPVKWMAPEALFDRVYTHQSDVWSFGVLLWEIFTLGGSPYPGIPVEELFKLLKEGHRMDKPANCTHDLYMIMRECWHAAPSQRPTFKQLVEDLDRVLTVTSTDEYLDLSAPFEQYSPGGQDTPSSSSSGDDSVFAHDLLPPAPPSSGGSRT
METHOD: phosphorylation enrichment, bacterial display (enrichment ratio); higher = better substrate or ligand; peptides without Tyr show the background
Give your answer as a number; write no unit.

{"ENTRY SEQUENCE": "RFLRGYQQDAF [HLA-A_Y137_R138Q_YF]", "phosphorylation enrichment": 0.677}
{"ENTRY SEQUENCE": "KDQGTYEDFVE [MYL6_Y86_YF]", "phosphorylation enrichment": 1.35}
{"ENTRY SEQUENCE": "LLNPSYNLPLD [TOM1L1_Y109_R108S]", "phosphorylation enrichment": 1.14}
{"ENTRY SEQUENCE": "YGAHNHHPLPV [OAT_Y55_Y55H]", "phosphorylation enrichment": 0.473}
{"ENTRY SEQUENCE": "VAVVQYSGTGQ [COL6A1_Y878]", "phosphorylation enrichment": 0.564}
{"ENTRY SEQUENCE": "ATHSGYRLNDY [CLDN14_Y233]", "phosphorylation enrichment": 0.491}

Reported phosphorylation enrichment of GEVKAYGAGLL [TH_Y419] : 0.371

Reported phosphorylation enrichment of SSREEYFIGGG [GYPC_Y126_K124E] : 1.94

Reported phosphorylation enrichment of SADIAYNYRHG [PAH_Y166_F161S] : 0.391

Reported phosphorylation enrichment of PVGDAYKKKGL [NMNAT1_Y55] : 0.624

Reported phosphorylation enrichment of RPQDGFRIVQH [PTPRT_Y1329_Y1329F] : 0.45

Reported phosphorylation enrichment of WEQELYSQLVF [WAS_Y102_YF] : 4.51

Reported phosphorylation enrichment of ISKKHYAGLLF [POLD1_Y809_R808H] : 0.643

Reported phosphorylation enrichment of QNTGVYYDLYG [PTPN11_Y62_D61V] : 14.5

Reported phosphorylation enrichment of TQPSPYAVFRF [RPGRIP1_Y823_YF] : 0.8

Reported phosphorylation enrichment of EAESWYQTKFE [KRT75_Y342_YF] : 0.808

Reported phosphorylation enrichment of KHMADYPDYKY [SOX11_Y113] : 0.632
